System: Escherichia coli TOP10;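 also: peptides expressed intracellularly from a pBAD plasmid library in pooled LB shake-flask culture, induced with 0.3% L-arabinose, DNA abundance read by NGS, three biological replicates, DESeq2 with apeglm shrinkage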
Protocol Text: shrunken log2 fold change of peptide-encoding DNA abundance (4.5 h post-induction vs induction); higher = less antimicrobial activity (less host growth inhibition)
Details: time post-induction: 4.5 h; library: site-saturation at positions 5, 18, 19, 20
Give yes (1) when the value for shrunken log2 fold change is at least -0.009. Give no (0) when it is less.

Some solved entries appear below for comparison.
RRIRERPPRLPRPRPRPPWVPRP | no (0)
RRIRTRPPRLPRPRPRPWPSPRP | no (0)
RRIRWRPPRLPRPRPRPCWCPRP | no (0)
RRIRARPPRLPRPRPRPMRDPRP | yes (1)
RRIRCRPPRLPRPRPRPWRLPRP | yes (1)
RRIRRRPPRLPRPRPRPWFLPRP | no (0)

Problem: Check this sequence for shrunken log2 fold change at or above -0.009: RRIRQRPPRLPRPRPRPNRNPRP
Solution: no (0)

Problem: Check this sequence for shrunken log2 fold change at or above -0.009: RRIRGRPPRLPRPRPRPYKDPRP
Solution: no (0)
